PROTOCOL DESCRIPTION: Cell viability by CCK-8 method
Assay type: cell-based, human
ASSAY CONTEXT: human, HepG2 cells
Listing of recorded viability at 24 h, 50 µM by entry.
Report the value in % with no unit label.

| MOLECULE | UNITS | viability at 24 h, 50 µM |
| --- | --- | --- |
| C[C@@H]1O[C@@H](O[C@H]2[C@H](O[C@H]3CC[C@@]4(C)[C@@H](CC[C@]5(C)[C@@H]4CC=C4[C@@H]6CC(C)(C)CC[C@]6(C(=O)O)CC[C@]45C)[C@]3(C)CO)OC[C@H](O)[C@@H]2O)[C@H](O)[C@H](O)[C@H]1O | % | 73.3 |

input: Please list viability at 24 h, 50 µM recorded for the molecule CC(C)=CCCC(C)(O)C(O)CCC(C)CCO (centres unmarked)
output: 33.4
